# Measurement target: full-length human RORγt (Homo sapiens (Human), UniProt P51449)
# Sequence (P51449 other isoform, or with tags, fused parts or gaps): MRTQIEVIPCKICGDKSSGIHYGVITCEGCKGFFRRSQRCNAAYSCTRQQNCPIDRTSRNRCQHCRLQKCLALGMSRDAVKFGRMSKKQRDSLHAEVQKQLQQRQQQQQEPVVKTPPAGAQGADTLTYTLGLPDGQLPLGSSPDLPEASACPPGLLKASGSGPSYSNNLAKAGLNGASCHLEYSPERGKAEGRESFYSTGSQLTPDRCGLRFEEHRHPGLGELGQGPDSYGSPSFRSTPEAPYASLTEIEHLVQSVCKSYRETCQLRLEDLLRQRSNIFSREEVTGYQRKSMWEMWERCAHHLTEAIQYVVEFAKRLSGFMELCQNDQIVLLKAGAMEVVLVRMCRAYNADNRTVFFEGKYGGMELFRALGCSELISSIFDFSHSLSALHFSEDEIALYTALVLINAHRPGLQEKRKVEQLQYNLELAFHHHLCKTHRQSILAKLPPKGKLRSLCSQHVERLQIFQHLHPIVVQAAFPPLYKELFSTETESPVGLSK
# Experiment notes: RORγt (full-length human) reporter assay, conditions A or B, HEK293T cells
# Type: cell-based
# Study conditions: RORγt (FL) Reporter Assay A or B, IC50, HEK293T cells
I'd appreciate it if you could supply IC50 values for the items below.
Answers are plain numbers, in nM.

Sample records with IC50:
Compound: CCn1nc(C(=O)NC[C@]2(O)CC[C@@H](S(C)(=O)=O)CC2)c(Cl)c1-c1ccc(CCC(F)(F)F)cc1OC(F)F
Value type: IC50
Result value: 9.3

Compound: CCn1nc(C(=O)NC[C@@]2(O)CC[C@H](S(C)(=O)=O)C[C@@H]2O)c(Cl)c1-c1ccc(C[C@H](C)C(F)(F)F)cc1OC(F)F (stereo in doubt)
Value type: IC50
Result value: 26

Field: next compound
Data request: Entry "CCn1nc(C(=O)NC[C@]2(CO)CC[C@@H](S(C)(=O)=O)CC2)c(Cl)c1-c1ccc(CC(C)(C)C(F)(F)F)cc1OC(F)F" needs its IC50 filled in; supply it.
Data returned: 3.7
